Substrate: OC[C@@H](O)[C@H](O)[C@@H](O)CO
Assay: purified protein
Conditions: 1-10 mM xylitol, 1.5 mM NAD+, 50 mM Tris-HCl pH 8.0, 30 °C
readout type: Km (mM)

- protein: "SpXDH C103D mutant (enzyme, Schizosaccharomyces pombe, UniProt P36624 1-360, looked up, SPBC1773.05c protein of S. pombe (SpXDH), cloned into pQE-81L; source: E. coli DH5α, purified (Ni-NTA)) MAPAEKAFVLRKKMDTAIEDRPGQTLTDDHQVKVAIKATGICGSDVHYWKEGGIGDFILKKPMILGHESAGVVVEVGKGVSSLKPGDPVAVEPGCVCRLCDYDRSGRYNLCPHMEFAATPPYDGTLRTYYITTEDFCTKLPKQISVEEGALFEPMSVAVHAMTRGNLKCGSRVLVMGCGTVGLLMMAVAKAYGAIDIVAVDASPSRVEFAQKYVGAKPFTPIAAKENESLPDYAQRYKQAIIEKYGEFDFAVDATGVGICIHTAVLALKRGGTFVQAGNGKPVIDFPINHIINYEINVLGSFRYAHGCYKQSLFLVSNGLVDVKPLITHRFAFKDALKAYETVASGEEGVLKVIIGGPDA"
  recorded result: 10.5

Values from paper PMC9895041
